- test_target: human TLR7 (Homo sapiens, UniProt Q9NYK1)
- Construct: host or cells: HEK-Blue cells
- Sequence (Q9NYK1 27-1049): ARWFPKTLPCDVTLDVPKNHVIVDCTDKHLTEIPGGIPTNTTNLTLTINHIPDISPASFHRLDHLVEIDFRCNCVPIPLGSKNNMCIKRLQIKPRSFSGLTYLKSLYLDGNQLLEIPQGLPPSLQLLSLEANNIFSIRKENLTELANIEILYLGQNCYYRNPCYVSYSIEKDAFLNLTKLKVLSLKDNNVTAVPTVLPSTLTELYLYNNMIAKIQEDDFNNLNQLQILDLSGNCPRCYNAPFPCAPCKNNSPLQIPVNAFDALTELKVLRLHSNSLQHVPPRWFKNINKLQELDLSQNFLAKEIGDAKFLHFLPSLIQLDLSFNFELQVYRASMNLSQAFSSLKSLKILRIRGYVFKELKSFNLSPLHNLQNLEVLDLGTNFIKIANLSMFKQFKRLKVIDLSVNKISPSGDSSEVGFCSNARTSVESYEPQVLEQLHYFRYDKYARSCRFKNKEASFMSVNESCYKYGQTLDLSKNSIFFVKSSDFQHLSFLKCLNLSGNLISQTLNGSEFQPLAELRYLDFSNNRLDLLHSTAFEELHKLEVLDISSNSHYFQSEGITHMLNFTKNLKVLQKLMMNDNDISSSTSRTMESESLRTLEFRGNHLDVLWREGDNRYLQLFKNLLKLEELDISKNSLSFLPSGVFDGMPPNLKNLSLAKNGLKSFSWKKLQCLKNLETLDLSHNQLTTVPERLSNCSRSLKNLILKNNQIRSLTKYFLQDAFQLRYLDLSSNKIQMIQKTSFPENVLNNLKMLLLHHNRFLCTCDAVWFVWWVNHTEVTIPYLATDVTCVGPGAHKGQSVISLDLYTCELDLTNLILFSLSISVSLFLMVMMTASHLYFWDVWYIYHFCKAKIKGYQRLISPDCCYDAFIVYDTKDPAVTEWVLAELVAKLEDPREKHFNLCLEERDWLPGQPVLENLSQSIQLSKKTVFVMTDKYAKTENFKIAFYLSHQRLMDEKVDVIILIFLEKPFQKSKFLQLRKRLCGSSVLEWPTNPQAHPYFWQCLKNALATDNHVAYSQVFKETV
- experiment_notes: TLR7 inhibition reporter assay (HEK-Blue cells, SEAP reporter, gardiquimod stimulation)
- Assay type: cell-based
- condition_set: HEK-Blue cells overexpressing human TLR7, SEAP reporter, gardiquimod 7.5 μM; read-out: TLR7 IC50
- From the text: TLR7/8/9 Inhibition Reporter Assays HEK-Blue™-cells (Invivogen) overexpressing human TLR7, TLR8 or TLR9 receptors were used for screening inhibitors of these receptors using an inducible SEAP (secreted embryonic alkaline phosphatase) reporter gene under the control of the IFN-β minimal promoter fused to five NF-κB and AP-1-binding sites. […]
pIC50: −log10 of the molar value.
measurement_label: pIC50

Query :: Any idea what its pIC50 is? The compound is Cc1c(-c2[nH]c3sc(C4CCC(NCC(C)(C)O)CC4)nc3c2C(C)C)cn(C)c(=O)c1C (single isomer, unassigned) [Example 252]
Result :: 7.17

[A] Cc1cc2ncnn2cc1-c1[nH]c2sc(C3CCC(N4CCCOCC4)CC3)nc2c1C(C)C (single isomer, unassigned) [Example 147]
[B] Cc1c(-c2[nH]c3sc(C4CCN(CC5CCOCC5)CC4)nc3c2C(C)C)cn2ncnc2c1C
[C] Cc1c(-c2[nH]c3sc(C(=O)N4CCNC(=O)C4)nc3c2C(C)C)cn2ncnc2c1C
Query :: // smallest pIC50 at index 0, largest at the end List the labels in the requested order.
Result :: A, C, B

###

- test_target: human TLR7 (Homo sapiens, UniProt Q9NYK1)
- Construct: host or cells: HEK-Blue cells
- experiment_notes: TLR7 inhibition reporter assay (HEK-Blue cells, SEAP reporter, gardiquimod stimulation)
- Assay type: cell-based
- condition_set: HEK-Blue cells overexpressing human TLR7, SEAP reporter, gardiquimod 7.5 μM; read-out: TLR7 IC50
measurement_label: IC50 (nM)

Example cases with answers are listed next.
Query :: Any idea what its IC50 is? The compound is COc1cc(-c2[nH]c3sc(C4CCC(N5CCS(=O)(=O)CC5)CC4)nc3c2C(C)C)cn2ncnc12 (single isomer, unassigned) [Example 82]
Result :: 4.69

Query :: // next record "Cc1c(-c2[nH]c3sc(N4CCN(C5CCC5)C[C@H]4C)nc3c2C(C)C)cn2ncnc2c1C"
Result :: 22.4

Query :: // next record "CC(C)c1c(-c2ccc(C#N)c3ncccc23)[nH]c2sc(C3CCN(CC(=O)N(C)C)CC3)nc12"
Result :: 29.9

Query :: // next record COc1cc(-c2[nH]c3sc(C4CCC(N5CC(O)(C(F)(F)F)C5)CC4)nc3c2C(C)C)cn2ncnc12 (single isomer, unassigned) [Example 118]
Result :: 2

Query :: // next record Cc1c(-c2[nH]c3sc(C4CCC(N(C)CC(C)C)CC4)nc3c2C(C)C)cn2ncnc2c1C (single isomer, unassigned) [Example 228]
Result :: 2.18

[P] Cc1c(-c2[nH]c3sc(N4CCN(C5COC5)C[C@@H]4C)nc3c2C(C)C)cn2ncnc2c1C
[Q] Cc1c(-c2[nH]c3sc(C(=O)NCCN4CCCC4)nc3c2C(C)C)cn2ncnc2c1C
Query :: Between the entries labelled P and Q , which has a larger IC50 value on record? Select an item and report its label.
Result :: P

[I] COc1cc(-c2[nH]c3sc(C4CCC(N5CC[C@@H](NC(C)=O)C5)CC4)nc3c2C(C)C)cn2ncnc12 (single isomer, unassigned) [Example 101]
[II] Cc1c(-c2[nH]c3sc(C4CCC(NCC(=O)N(C)C)CC4)nc3c2C(C)C)cn2ncnc2c1C (single isomer, unassigned) [Example 204]
Query :: Between the entries labelled I and II , which has a larger IC50 value on record? Select an item and report its label.
Result :: I
(I: 3.68 nM, II: 1.5 nM)

[1] Cc1c(-c2[nH]c3sc(C4CCC(N5CC6(CCOCC6)C5)CC4)nc3c2C(C)C)cn2ncnc2c1C (single isomer, unassigned) [Example 240]
[2] Cc1cc(-c2[nH]c3sc(C4CCNCC4)nc3c2C(C)C)cn2ncnc12
Query :: Between the entries labelled 1 and 2 , which has a larger IC50 value on record? Select an item and report its label.
Result :: 1

[a] Cc1cc2ncnn2cc1-c1[nH]c2sc(C3CCC(N4CCCOCC4)CC3)nc2c1C(C)C (single isomer, unassigned) [Example 146]
[b] Cc1c(-c2[nH]c3sc(N4CCNC[C@@H]4C)nc3c2C(C)C)cn2ncnc2c1C
[c] COC1CN(C(=O)c2nc3c(C(C)C)c(-c4cc(C)c5ncnn5c4)[nH]c3s2)C1
Query :: # sort list by recorded IC50, greatest to least List the labels in the requested order.
Result :: c, a, b

###

- test_target: human TLR8 (Homo sapiens)
- Construct: host or cells: HEK-Blue cells
- experiment_notes: TLR8 inhibition reporter assay (HEK-Blue cells, SEAP reporter, R848 stimulation)
- Assay type: cell-based
- condition_set: HEK-Blue cells overexpressing human TLR8, SEAP reporter, R848 15.9 μM; read-out: TLR8 IC50
pIC50: −log10 of the molar value.
measurement_label: pIC50

Query :: Any idea what its pIC50 is? The molecule is Cc1c(-c2[nH]c3sc(C4CCC(N5CCOCC5)CC4)nc3c2C(C)C)cn2ncnc2c1C (single isomer, unassigned) [Example 212]
Result :: 9.20

Query :: // next record Cc1c(-c2[nH]c3sc(C4CCC(N5CCC5)CC4)nc3c2C(C)C)cn2ncnc2c1C (single isomer, unassigned) [Example 216]
Result :: 8.99

Query :: // next record COc1cc(-c2[nH]c3sc(C4CCC(NC(C)C)CC4)nc3c2C(C)C)cn2ncnc12 (single isomer, unassigned) [Example 78]
Result :: 8.79

[P] COc1cc(-c2[nH]c3sc(C4CCC(NC5COC5)CC4)nc3c2C(C)C)cn2ncnc12 (single isomer, unassigned) [Example 65]
[Q] CC(C)c1c(-c2cn(C)c3ncccc23)[nH]c2sc(C3CCC(NCC(C)(C)O)CC3)nc12 (single isomer, unassigned) [Example 182]
[R] Cc1c(-c2[nH]c3sc(C4CCC(NCC5(S(C)(=O)=O)CC5)CC4)nc3c2C(C)C)cn(C)c(=O)c1C (single isomer, unassigned) [Example 258]
Query :: // smallest pIC50 at index 0, largest at the end List the labels in the requested order.
Result :: R, P, Q

###

- test_target: human TLR8 (Homo sapiens, UniProt Q9NR97)
- Construct: host or cells: HEK-Blue cells
- Sequence (Q9NR97 27-1041): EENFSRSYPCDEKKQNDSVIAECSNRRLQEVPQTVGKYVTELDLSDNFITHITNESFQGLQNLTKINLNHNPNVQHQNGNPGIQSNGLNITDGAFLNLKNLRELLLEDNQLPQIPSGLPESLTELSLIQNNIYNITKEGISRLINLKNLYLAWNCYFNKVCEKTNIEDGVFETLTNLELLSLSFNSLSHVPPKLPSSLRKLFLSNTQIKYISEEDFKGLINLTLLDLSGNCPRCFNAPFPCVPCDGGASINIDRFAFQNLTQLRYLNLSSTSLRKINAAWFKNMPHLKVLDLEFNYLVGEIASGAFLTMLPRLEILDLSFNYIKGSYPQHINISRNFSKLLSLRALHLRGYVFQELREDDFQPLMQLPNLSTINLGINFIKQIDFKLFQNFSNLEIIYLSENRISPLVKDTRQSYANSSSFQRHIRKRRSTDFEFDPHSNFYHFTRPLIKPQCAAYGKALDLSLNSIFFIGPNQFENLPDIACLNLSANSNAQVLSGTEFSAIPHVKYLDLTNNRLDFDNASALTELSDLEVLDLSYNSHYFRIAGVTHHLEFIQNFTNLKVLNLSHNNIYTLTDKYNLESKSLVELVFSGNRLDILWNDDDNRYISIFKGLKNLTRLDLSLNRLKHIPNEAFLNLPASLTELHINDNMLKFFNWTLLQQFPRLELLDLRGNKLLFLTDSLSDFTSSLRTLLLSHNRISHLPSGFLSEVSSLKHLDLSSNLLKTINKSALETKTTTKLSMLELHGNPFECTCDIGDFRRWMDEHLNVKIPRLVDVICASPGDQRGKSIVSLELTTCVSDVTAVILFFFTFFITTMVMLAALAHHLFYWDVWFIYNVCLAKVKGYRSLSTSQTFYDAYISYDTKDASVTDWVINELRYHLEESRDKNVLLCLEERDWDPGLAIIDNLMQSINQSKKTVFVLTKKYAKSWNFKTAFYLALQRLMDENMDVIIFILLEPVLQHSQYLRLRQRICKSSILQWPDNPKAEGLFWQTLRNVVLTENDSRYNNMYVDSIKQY
- experiment_notes: TLR8 inhibition reporter assay (HEK-Blue cells, SEAP reporter, R848 stimulation)
- Type: cell-based
- condition_set: HEK-Blue cells overexpressing human TLR8, SEAP reporter, R848 15.9 μM; read-out: TLR8 IC50
pIC50: −log10 of the molar value.
measurement_label: pIC50

Query :: Any idea what its pIC50 is? The molecule is Cc1cc2ncnn2cc1-c1[nH]c2sc(C3CCC(N(C)C(C)C)CC3)nc2c1C(C)C (single isomer, unassigned) [Example 158]
Result :: 7.51

Query :: // next record "Cc1c(-c2[nH]c3sc(N4C[C@@H](C)N(C5COC5)C[C@@H]4C)nc3c2C(C)C)cn2ncnc2c1C"
Result :: 7.89

Query :: // next record "COc1cc(-c2[nH]c3nc(C4CCNCC4)sc3c2C(C)C)cn2ncnc12"
Result :: 6.25

Query :: // next record Cc1c(-c2[nH]c3sc(C4CCC(N5CC(O)C5)CC4)nc3c2C(C)C)cn(C)c(=O)c1C (single isomer, unassigned) [Example 264]
Result :: 7.64

[I] Cc1c(-c2[nH]c3sc(N4C[C@@H](C)N(C(C)C)C[C@@H]4C)nc3c2C(C)C)cn2ncnc2c1C [Example 334]
[II] Cc1c(-c2[nH]c3sc(C4CCNCC4)nc3c2C(C)C)cn(C)c(=O)c1C
[III] Cc1c(-c2[nH]c3sc(N4CCN(C)C[C@H]4C)nc3c2C(C)C)cn2ncnc2c1C
[IV] COc1cc(-c2[nH]c3sc(C4CCC(NC5COC5)CC4)nc3c2C(C)C)cn2ncnc12 (single isomer, unassigned) [Example 66]
Query :: # sort list by recorded pIC50, greatest to least List the labels in the requested order.
Result :: III, I, II, IV
(III: 9.28, I: 8.50, II: 8.17, IV: 7.77)
